# measured on: Interleukin-8 (Homo sapiens)
# method summary: inhibitors of NFkB activation in CF airway cells, SAR follow-up, KKLEB cells, panel, IL8 HTRF, NFkB-GFP (AID 651592);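 note: immortalized cystic fibrosis airway epithelial KKLEB cells with an NF-kB GFP reporter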
# measurement parameters: PAF/TNFa-induced NFkB-GFP / IL8 HTRF, mean of runs
Activity calls are given as the source filed them.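 Rule for the calls: active = NF-kB reporter IC50 at most 10 µM, IL-8 IC50 within fivefold of it with bacterial filtrate but not with TNF-alpha; inactive = the rest.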
Outcomes: active, inactive

smiles	answer label
O=C(Nc1ccc(N2CCN(C(=O)c3ccccc3)CC2)cc1)c1ccncc1	active
Cc1ccc(CNCc2cc3c(C(C)(C)C)nn(-c4ccccc4)c3[nH]c2=O)cc1	active
O=C(Nc1ccc(N2CCN(C(=O)c3ccccc3F)CC2)cc1)c1ccccn1	active
CCOc1ccc(NCc2cc3c(-c4ccc(OC)c(OC)c4)nn(-c4ccccc4)c3[nH]c2=O)cc1	active
O=C(Nc1ccc(N2CCN(C(=O)c3ccccc3)CC2)cc1)c1cncc(Br)c1	inactive
O=C(Nc1ccc(N2CCN(C(=O)c3ccccc3)CC2)cc1)c1ccccc1	active
CCOc1ccc(NCc2cc3c(C)nn(-c4ccccc4)c3[nH]c2=O)cc1	inactive
O=C(Nc1ccc(N2CCN(C(=O)c3ccccc3)CC2)cc1)c1cccc(Br)c1	active
O=C(Nc1ccc(N2CCN(C(=O)c3ccccc3Cl)CC2)cc1)c1cccnc1	active
O=C(Nc1ccc(N2CCN(C(=O)c3ccccc3Cl)CC2)cc1)c1ccncc1	active
O=C(Nc1ccc(N2CCN(C(=O)c3ccc(F)cc3)CC2)cc1)c1ccncc1	active
O=C(Nc1ccc(N2CCN(C(=O)c3ccc(F)cc3)CC2)cc1)c1cc(Br)cc(Br)c1	active
O=C(Nc1ccc(N2CCN(C(=O)c3ccccc3F)CC2)cc1)c1cc(Br)cc(Br)c1	active
O=C(Nc1ccc(N2CCN(C(=O)c3ccccc3)CC2)cc1)c1ccccn1	active
CCOc1ccc(NCc2cc3c(-c4ccc(F)cc4)nn(-c4ccccc4)c3[nH]c2=O)cc1	inactive
O=C(Nc1ccc(N2CCN(C(=O)c3ccc(F)cc3)CC2)cc1)c1cccnc1	active
O=C(Nc1ccc(N2CCN(C(=O)c3ccccc3Cl)CC2)cc1)c1ccccc1	inactive
O=C(Nc1ccc(N2CCN(C(=O)c3ccccc3F)CC2)cc1)c1ccncc1	active
O=C(Nc1ccc(N2CCN(C(=O)c3ccc(F)cc3)CC2)cc1)c1cncc(Br)c1	inactive
